target: CDK9-CYCLINT1 (Homo sapiens, UniProt P50750); construct: purchased Carna; assay: Inhibition assay, microfluidic LabChip (Nanosyn); format: biochemical; details: Table 3b
Sequence (P50750 whole entry): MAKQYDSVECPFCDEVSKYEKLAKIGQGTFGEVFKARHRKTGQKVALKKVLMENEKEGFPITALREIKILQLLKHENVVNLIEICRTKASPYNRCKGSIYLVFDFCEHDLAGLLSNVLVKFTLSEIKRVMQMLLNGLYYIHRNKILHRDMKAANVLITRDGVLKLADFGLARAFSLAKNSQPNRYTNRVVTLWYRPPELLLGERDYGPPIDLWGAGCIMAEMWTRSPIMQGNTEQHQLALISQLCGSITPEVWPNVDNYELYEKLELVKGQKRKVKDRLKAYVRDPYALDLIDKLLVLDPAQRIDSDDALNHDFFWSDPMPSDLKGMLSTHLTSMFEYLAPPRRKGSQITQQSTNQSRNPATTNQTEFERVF
Sequence (O60563 whole entry partner): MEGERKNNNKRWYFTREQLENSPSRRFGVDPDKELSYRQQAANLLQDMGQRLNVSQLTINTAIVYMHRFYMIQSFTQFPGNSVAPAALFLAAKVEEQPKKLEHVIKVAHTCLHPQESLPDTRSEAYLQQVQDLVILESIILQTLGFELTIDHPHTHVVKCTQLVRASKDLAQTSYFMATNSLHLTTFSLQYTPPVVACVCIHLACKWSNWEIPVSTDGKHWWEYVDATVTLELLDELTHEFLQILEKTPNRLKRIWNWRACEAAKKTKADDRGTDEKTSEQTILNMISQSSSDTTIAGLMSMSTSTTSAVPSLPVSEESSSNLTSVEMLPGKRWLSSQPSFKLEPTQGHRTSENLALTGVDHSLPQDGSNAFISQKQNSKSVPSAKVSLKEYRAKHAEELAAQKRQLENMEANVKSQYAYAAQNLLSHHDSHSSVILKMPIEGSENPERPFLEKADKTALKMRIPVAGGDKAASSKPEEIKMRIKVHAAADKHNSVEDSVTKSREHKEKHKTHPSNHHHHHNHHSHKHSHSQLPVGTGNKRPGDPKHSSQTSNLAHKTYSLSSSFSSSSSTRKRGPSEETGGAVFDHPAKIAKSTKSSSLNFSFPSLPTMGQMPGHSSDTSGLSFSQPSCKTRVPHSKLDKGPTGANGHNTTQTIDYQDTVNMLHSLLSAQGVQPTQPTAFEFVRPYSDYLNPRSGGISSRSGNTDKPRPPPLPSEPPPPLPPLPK
pIC50: −log10 of the molar value.
reportedMetric: pIC50

1) CN(C)CCOc1ccc(Nc2ncc3cc(C(=O)N(C)C)n(C45CC(C4)C5)c3n2)cc1F [Compound A93] : > 8.49
2) CN1CCN(c2ccc(Nc3ncc4cc(C(=O)N(C)C)n(C56CC(C5)C6)c4n3)cc2)CC1 [Compound A88] : 8.29
3) CN(C)C(=O)c1cc2cnc(Nc3ccc(N4CCN(CCO)CC4)c(F)c3)nc2n1C12CC(C1)C2 [Compound A74] : > 8.49
4) CN(C)CCOc1ccc(Nc2ncc3cc(C(=O)N(C)C)n(C45CC(C4)C5)c3n2)cc1 [Compound A60] : > 8.49

---

Overview of reported IC50 across a group of compounds:
molecular target: CDK2-CYCLINA (Homo sapiens); construct: purchased Millipore; experiment: Inhibition assay, microfluidic LabChip (Nanosyn); assay type: biochemical; settings: Table 3b
reportedMetric: IC50 (nM)

1) CN(C)C(=O)c1cc2cnc(Nc3ccc(N4CC5(CNC5)C4)cc3)nc2n1C12CC(C1)C2 : 666
2) CN(C)CCOc1ccc(Nc2ncc3cc(C(=O)N(C)C)n(C45CC(C4)C5)c3n2)cc1F : 742
3) CN(C)C(=O)c1cc2cnc(Nc3ccc(N4CCN(CCO)CC4)c(F)c3)nc2n1C12CC(C1)C2 : 245
4) CN1CC2(C1)CN(c1ccc(Nc3ncc4cc(C(=O)N(C)C)n(C56CC(C5)C6)c4n3)cc1)C2 : 1470
5) CN1CCC(c2ccc(Nc3ncc4cc(C(=O)N(C)C)n(C56CC(C5)C6)c4n3)cc2)CC1 : 660
6) CN(C)C(=O)c1cc2cnc(Nc3ccc(S(C)(=O)=O)cc3)nc2n1C12CC(C1)C2 : 30.2
7) CC1CCN(c2ccc(Nc3ncc4cc(C(=O)N(C)C)n(C56CC(C5)C6)c4n3)cc2)CC1 : 690

---

molecular target: CDK2-CYCLINA (Homo sapiens, UniProt P24941); construct: purchased Millipore; test: Inhibition assay, microfluidic LabChip (Nanosyn); format: biochemical; settings: Table 3a
pIC50: −log10 of the molar value.
Reported pIC50 values follow for various compounds
reportedMetric: pIC50

1. CN1CCN(C2CCN(c3ccc(Nc4ncc5cc(C(=O)N(C)C)n(C67CC(C6)C7)c5n4)cc3F)CC2)CC1 : 6.20
2. CN1CCN(c2ccc(Nc3ncc4cc(C(=O)N(C)C)n(C56CC(C5)C6)c4n3)cc2)CC1 [Compound A88] : 6.45
3. CN(C)CCOc1ccc(Nc2ncc3cc(C(=O)N(C)C)n(C45CC(C4)C5)c3n2)cc1 : 6.10
4. CN(C)C(=O)c1cc2cnc(Nc3ccc(N4CC5(CNC5)C4)cc3)nc2n1C12CC(C1)C2 : 6.18

---

target: CDK2-CYCLINA (Homo sapiens, UniProt P24941); construct: purchased Millipore; experiment: Inhibition assay, microfluidic LabChip (Nanosyn); format: biochemical; settings: Table 3b
pIC50: −log10 of the molar value.
reportedMetric: pIC50

1. CC(C)N1CCN(c2ccc(Nc3ncc4cc(C(=O)N(C)C)n(C56CC(C5)C6)c4n3)cc2)CC1 (single isomer, unassigned) : 6.40
2. CN1CC2(C1)CN(c1ccc(Nc3ncc4cc(C(=O)N(C)C)n(C56CC(C5)C6)c4n3)cc1F)C2 : 6.20
3. CN(C)C(=O)c1cc2cnc(Nc3ccc(N4CCNCC4)c(F)c3)nc2n1C12CC(C1)C2 : 6.79
4. CN(C)CCOc1ccc(Nc2ncc3cc(C(=O)N(C)C)n(C45CC(C4)C5)c3n2)cc1 : 6.10
5. CN(C)C(=O)c1cc2cnc(Nc3ccc(C4=CCNCC4)cn3)nc2n1C12CC(C1)C2 : 4.30

---

pIC50 by entry:
biological target: CDK4-CYCLIND1 (Homo sapiens); construct: purchased Invitrogen; experiment: Inhibition assay, microfluidic LabChip (Nanosyn); format: biochemical; settings: Table 3a; read-out: CDK4 CyclinD1 IC50
Sequence (P11802 whole entry): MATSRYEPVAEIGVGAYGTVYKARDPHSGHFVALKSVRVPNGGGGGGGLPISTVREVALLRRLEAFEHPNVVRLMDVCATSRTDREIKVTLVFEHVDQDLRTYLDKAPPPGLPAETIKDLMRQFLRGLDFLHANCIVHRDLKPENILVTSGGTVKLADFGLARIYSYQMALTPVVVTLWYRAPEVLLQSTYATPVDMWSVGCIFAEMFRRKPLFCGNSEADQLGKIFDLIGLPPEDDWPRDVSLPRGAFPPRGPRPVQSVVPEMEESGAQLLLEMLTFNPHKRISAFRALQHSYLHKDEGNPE
Sequence (P24385 whole entry partner): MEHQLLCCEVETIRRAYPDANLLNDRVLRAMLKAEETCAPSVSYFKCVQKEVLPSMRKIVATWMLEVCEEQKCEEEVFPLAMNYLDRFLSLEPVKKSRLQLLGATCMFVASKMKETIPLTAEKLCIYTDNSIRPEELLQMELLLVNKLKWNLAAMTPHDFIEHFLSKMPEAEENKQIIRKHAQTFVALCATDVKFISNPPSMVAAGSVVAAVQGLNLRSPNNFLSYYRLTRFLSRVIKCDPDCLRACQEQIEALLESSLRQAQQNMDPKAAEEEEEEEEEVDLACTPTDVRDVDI
pIC50: −log10 of the molar value.
reportedMetric: pIC50

1. CN(C)CCOc1ccc(Nc2ncc3cc(C(=O)N(C)C)n(C45CC(C4)C5)c3n2)cc1F : 8.16
2. CN1CC2(C1)CN(c1ccc(Nc3ncc4cc(C(=O)N(C)C)n(C56CC(C5)C6)c4n3)cc1)C2 : 7.85
3. Cc1cc(Nc2ncc3cc(C(=O)N(C)C)n(C45CC(C4)C5)c3n2)ccc1OCCN(C)C : 7.83
4. CN1CCC(c2ccc(Nc3ncc4cc(C(=O)N(C)C)n(C56CC(C5)C6)c4n3)cc2)CC1 : 8.34
5. CN(C)C(=O)c1cc2cnc(Nc3ccc(N4CCNCC4)cc3)nc2n1C12CC(C1)C2 : 8.17
6. CC1CN(c2ccc(Nc3ncc4cc(C(=O)N(C)C)n(C56CC(C5)C6)c4n3)cc2)CC(C)N1 (stereo not shown) : 7.95
7. CN1CCN(c2ccc(Nc3ncc4cc(C(=O)N(C)C)n(C56CC(C5)C6)c4n3)cc2)CC1 [Compound A84] : 8.61
8. CN(C)C(=O)c1cc2cnc(Nc3ccc(N4CCNCC4)cn3)nc2n1C12CC(C1)C2 : 7.80
9. CN(C)C(=O)c1cc2cnc(Nc3ccc(C4=CCNCC4)cn3)nc2n1C12CC(C1)C2 : 7.60

---

target: CDK9-CYCLINT1 (Homo sapiens, UniProt P50750); construct: purchased Carna; experiment: Inhibition assay, microfluidic LabChip (Nanosyn); type: biochemical; conditions: Table 3a
pIC50: −log10 of the molar value.
reportedMetric: pIC50

1. CN(C)C(=O)c1cc2cnc(Nc3ccc(N4CC5(CNC5)C4)cc3)nc2n1C12CC(C1)C2 : 7.83
2. CN1CCN(c2ccc(Nc3ncc4cc(C(=O)N(C)C)n(C56CC(C5)C6)c4n3)cc2)CC1 [Compound A84] : 8.23
3. CC1CCN(c2ccc(Nc3ncc4cc(C(=O)N(C)C)n(C56CC(C5)C6)c4n3)cc2)CC1 : 8.15
4. CN(C)C(=O)c1cc2cnc(NC3CCN(S(C)(=O)=O)CC3)nc2n1C12CC(C1)C2 : 7.94
5. CN(C)C(=O)c1cc2cnc(Nc3ccc(C4=CCNCC4)cn3)nc2n1C12CC(C1)C2 : 6.26
6. CN(C)C(=O)c1cc2cnc(Nc3ccc(N4CCNCC4)cc3)nc2n1C12CC(C1)C2 : 7.90
7. CC1CN(c2ccc(Nc3ncc4cc(C(=O)N(C)C)n(C56CC(C5)C6)c4n3)cc2)CC(C)N1 (stereo not drawn) : 8.03
8. CN1CC2(C1)CN(c1ccc(Nc3ncc4cc(C(=O)N(C)C)n(C56CC(C5)C6)c4n3)cc1F)C2 : 8.32
9. CN1CCC(c2ccc(Nc3ncc4cc(C(=O)N(C)C)n(C56CC(C5)C6)c4n3)cc2)CC1 : 8.26
10. CN1CC2(C1)CN(c1ccc(Nc3ncc4cc(C(=O)N(C)C)n(C56CC(C5)C6)c4n3)cc1)C2 : 8.29
11. CC(C)N1CCN(c2ccc(Nc3ncc4cc(C(=O)N(C)C)n(C56CC(C5)C6)c4n3)cc2)CC1 (single isomer, unassigned) : 8.39
12. CN1CCN(c2ccc(Nc3ncc4cc(C(=O)N(C)C)n(C56CC(C5)C6)c4n3)cc2)CC1 [Compound A88] : 8.29
13. CN(C)C(=O)c1cc2cnc(Nc3ccc(N4CCNCC4)cn3)nc2n1C12CC(C1)C2 : 6.17

---

test system: LIXFH Hep G2; assay: 2D cell proliferation assay (CellTiter-Blue); type: cell-based; conditions: Homo sapiens, HepG2, 72 h; cell line LIXFH Hep G2; three days of treatment; read-out: IC (abs. IC50)
pIC50: −log10 of the molar value.
reportedMetric: pIC50

1. CN1CCN(c2ccc(Nc3ncc4cc(C(=O)N(C)C)n(C56CC(C5)C6)c4n3)cc2)CC1 : 6.91

---

test: Nonclinical pharmacokinetic study, IV and oral, in rats; conditions: rat, plasma, po, 100 mg/kg
reportedMetric: MRT

1) CN1CCN(c2ccc(Nc3ncc4cc(C(=O)N(C)C)n(C56CC(C5)C6)c4n3)cc2)CC1 [SPV113] : 25.5 h

---

target: CDK6-CYCLIND3 (Homo sapiens); construct: purchased Carna; test: Inhibition assay, microfluidic LabChip (Nanosyn); format: biochemical; details: Table 2; ATP 300 μM; read-out: CDK6 IC50
Sequence (Q00534 whole entry): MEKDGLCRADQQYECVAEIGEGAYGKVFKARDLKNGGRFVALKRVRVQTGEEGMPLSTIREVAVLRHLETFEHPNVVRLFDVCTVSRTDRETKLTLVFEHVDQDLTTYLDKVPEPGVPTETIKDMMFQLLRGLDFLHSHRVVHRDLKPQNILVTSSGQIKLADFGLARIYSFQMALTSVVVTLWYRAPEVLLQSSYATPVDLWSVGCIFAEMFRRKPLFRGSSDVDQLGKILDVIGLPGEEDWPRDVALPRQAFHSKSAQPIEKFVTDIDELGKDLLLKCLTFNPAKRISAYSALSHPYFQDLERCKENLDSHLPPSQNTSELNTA
Sequence (P30281 whole entry partner): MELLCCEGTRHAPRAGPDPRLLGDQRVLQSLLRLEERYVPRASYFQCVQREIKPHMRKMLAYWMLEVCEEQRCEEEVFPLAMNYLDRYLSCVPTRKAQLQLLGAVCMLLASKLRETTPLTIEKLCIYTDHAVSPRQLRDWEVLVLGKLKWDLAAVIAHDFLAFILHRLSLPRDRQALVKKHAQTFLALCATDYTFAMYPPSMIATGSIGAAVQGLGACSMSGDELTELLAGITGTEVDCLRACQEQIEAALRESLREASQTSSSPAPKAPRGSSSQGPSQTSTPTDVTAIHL
reportedMetric: log10(IC50) (log10 of the value in nM)

1. CN(C)CCOc1ccc(Nc2ncc3cc(C(=O)N(C)C)n(C45CC(C4)C5)c3n2)nc1 [Compound A15] : 1.38
2. Cc1cc(Nc2ncc3c(F)c(C(=O)N(C)C)n(C4CCCC4)c3n2)ccc1N1CCN(C(C)C)CC1 [Compound A34] : 2.01
3. CC(C)N1CCN(c2ccc(Nc3ncc4cc(C(=O)N(C)C)n(C5CCCC5)c4n3)cc2F)CC1 [Compound A11] : 1.08
4. CN(C)C(=O)c1cc2cnc(Nc3ccc(OCCN4CCCC4)cn3)nc2n1C1CCCC1 [Compound A5] : 1.70
5. CN1CCN(c2cnc(Nc3ncc4c(F)c(C(=O)N(C)C)n(C5CCCC5)c4n3)cc2C(F)(F)F)CC1 [Compound A18] : 4.10

// provenance: patent US20220056037A1
